# System: 885724-159-R-J1-PDC complex spheroid viability
# Assay: Anticancer human tumor 885724-159-R-J1-PDC patient-derived pancreatic adenocarcinoma cell line growth inhibition [POLQ]
# Run conditions: second compound 0.1 µM; first compound 0.316 µM; hits give low values
Checkbox rule: viability, T/C lower than 60% = condition met; viability, T/C not lower than 60% = condition not met.

{"Compound": "CCc1cc2c(N3CCc4c(cc(Cn5ccnc5)cc4-c4cn(C)nc4C(F)(F)F)C3=O)ccnc2c(OC)n1 + Cc1cccc(N(C)C(=O)C2C(O)CCN2c2nc(C)cc(C(F)(F)F)c2C#N)c1", "Class label": "condition not met"}
{"Compound": "CC(C)n1c(=O)n(C)c2cnc3cc(F)c(-c4ccc(OCCCN5CCCCC5)nc4)cc3c21 + Nc1ccc(C#CCN(C(=O)Cc2ncc(C(F)(F)F)cc2C(F)(F)F)c2ccc(F)cc2)nn1", "Class label": "condition not met"}
{"Compound": "COc1cccc(OCCCN)c1-c1cc(Nc2cnc(C#N)cn2)n[nH]1 + Nc1ccc(C#CCN(C(=O)Cc2ncc(C(F)(F)F)cc2C(F)(F)F)c2ccc(F)cc2)nn1", "Class label": "condition met"}
{"Compound": "COc1cc2cc(C(=O)CCC(=O)O)sc2cc1OC + Nc1ccc(C#CCN(C(=O)Cc2ncc(C(F)(F)F)cc2C(F)(F)F)c2ccc(F)cc2)nn1", "Class label": "condition not met"}

###

# System: 885724-159-R-J1-PDC complex spheroid viability
# Assay: Anticancer human tumor 885724-159-R-J1-PDC cell line growth inhibition [POLQ];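 note: spheroids exposed to compounds for 7 days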
# Run conditions: second compound 3.16 µM; first compound 10 µM; hits give low values
Property measured: viability, T/C (%)

{"Compound": "COc1ccc([C@@H](O)c2cc(-c3ncnc4cc(N5CCOCC5)ccc34)c(F)cc2Cl)nn1 + Cc1cccc(N(C)C(=O)C2C(O)CCN2c2nc(C)cc(C(F)(F)F)c2C#N)c1", "Target desc": "885724-159-R-J1-PDC complex spheroid viability", "Observed result": 33.4}
{"Compound": "CC1COCCN1c1cc(C2(O)CC3CCC(C2)O3)c2cnn(-c3ccn[nH]3)c2n1 (stereo not given) + COC1C(OC(N)=O)C(O)C(Oc2ccc3c(O)c(NC(=O)c4ccc(O)c(CC=C(C)C)c4)c(=O)oc3c2C)OC1(C)C", "Target desc": "885724-159-R-J1-PDC complex spheroid viability", "Observed result": 26.4}
{"Compound": "Nc1ccn(C2OC(CO)C(O)C2(F)F)c(=O)n1 (stereo not given) + Cc1cccc(N(C)C(=O)C2C(O)CCN2c2nc(C)cc(C(F)(F)F)c2C#N)c1", "Target desc": "885724-159-R-J1-PDC complex spheroid viability", "Observed result": 42.8}
{"Compound": "O=C(c1cc(Cc2n[nH]c(=O)c3ccccc23)ccc1F)N1CCN(C(=O)C2CC2)CC1 + Nc1ccc(C#CCN(C(=O)Cc2ncc(C(F)(F)F)cc2C(F)(F)F)c2ccc(F)cc2)nn1", "Target desc": "885724-159-R-J1-PDC complex spheroid viability", "Observed result": 80.8}
{"Compound": "COc1cccc2c1C(=O)c1c(O)c3c(c(O)c1C2=O)CC(O)(C(=O)CO)CC3OC1CC(N)C(O)C(C)O1 (stereo not given) + COC1C(OC(N)=O)C(O)C(Oc2ccc3c(O)c(NC(=O)c4ccc(O)c(CC=C(C)C)c4)c(=O)oc3c2C)OC1(C)C", "Target desc": "885724-159-R-J1-PDC complex spheroid viability", "Observed result": 7.69}

###

# System: 885724-159-R-J1-PDC complex spheroid viability
# Assay: Anticancer human tumor 885724-159-R-J1-PDC cell line growth inhibition [POLQ];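 note: spheroids exposed to compounds for 7 days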
# Run conditions: second compound 1 µM; first compound 0.01 µM; hits give low values
# Method: Multicellular complex tumor spheroid response to Polymerase (POL) inhibitors (novobiocin, ART-558, RP6685) in combination with a variety of drugs and investigational agents in selected tumor cell lines The POL inhibitors (novobiocin, ART-558, and RP6685) were evaluated both individually and in combination with standard of care and investigational anticancer small molecules within a complex spheroid model of solid tumors. . […]
Listing of recorded viability, T/C by entry.

{"Compound": "COc1cccc(OCCCN)c1-c1cc(Nc2cnc(C#N)cn2)n[nH]1 + Cc1cccc(N(C)C(=O)C2C(O)CCN2c2nc(C)cc(C(F)(F)F)c2C#N)c1", "viability, T/C": "48.5%"}
{"Compound": "C=CCn1c(=O)c2cnc(Nc3ccc(N4CCN(C)CC4)cc3)nc2n1-c1cccc(C(C)(C)O)n1 + Nc1ccc(C#CCN(C(=O)Cc2ncc(C(F)(F)F)cc2C(F)(F)F)c2ccc(F)cc2)nn1", "viability, T/C": "92.6%"}
{"Compound": "Cn1ncnc1[C@H]1c2n[nH]c(=O)c3cc(F)cc(c23)N[C@@H]1c1ccc(F)cc1 + Nc1ccc(C#CCN(C(=O)Cc2ncc(C(F)(F)F)cc2C(F)(F)F)c2ccc(F)cc2)nn1", "viability, T/C": "95%"}
{"Compound": "C=CCn1c(=O)c2cnc(Nc3ccc(N4CCN(C)CC4)cc3)nc2n1-c1cccc(C(C)(C)O)n1 + Cc1cccc(N(C)C(=O)C2C(O)CCN2c2nc(C)cc(C(F)(F)F)c2C#N)c1", "viability, T/C": "93.8%"}
{"Compound": "CC[C@@]1(O)C(=O)OCc2c1cc1n(c2=O)Cc2cc3c(CN(C)C)c(O)ccc3nc2-1 + COC1C(OC(N)=O)C(O)C(Oc2ccc3c(O)c(NC(=O)c4ccc(O)c(CC=C(C)C)c4)c(=O)oc3c2C)OC1(C)C", "viability, T/C": "95.3%"}
{"Compound": "CCc1c2c(nc3ccc(O)cc13)-c1cc3c(c(=O)n1C2)COC(=O)[C@]3(O)CC + Nc1ccc(C#CCN(C(=O)Cc2ncc(C(F)(F)F)cc2C(F)(F)F)c2ccc(F)cc2)nn1", "viability, T/C": "63%"}
{"Compound": "Cn1ncnc1[C@H]1c2n[nH]c(=O)c3cc(F)cc(c23)N[C@@H]1c1ccc(F)cc1 + Cc1cccc(N(C)C(=O)C2C(O)CCN2c2nc(C)cc(C(F)(F)F)c2C#N)c1", "viability, T/C": "84.5%"}
{"Compound": "CCc1c2c(nc3ccc(O)cc13)-c1cc3c(c(=O)n1C2)COC(=O)[C@]3(O)CC + COC1C(OC(N)=O)C(O)C(Oc2ccc3c(O)c(NC(=O)c4ccc(O)c(CC=C(C)C)c4)c(=O)oc3c2C)OC1(C)C", "viability, T/C": "60.4%"}
{"Compound": "CCc1c2c(nc3ccc(O)cc13)-c1cc3c(c(=O)n1C2)COC(=O)[C@]3(O)CC + Cc1cccc(N(C)C(=O)C2C(O)CCN2c2nc(C)cc(C(F)(F)F)c2C#N)c1", "viability, T/C": "65.8%"}
{"Compound": "COc1cccc(OCCCN)c1-c1cc(Nc2cnc(C#N)cn2)n[nH]1 + COC1C(OC(N)=O)C(O)C(Oc2ccc3c(O)c(NC(=O)c4ccc(O)c(CC=C(C)C)c4)c(=O)oc3c2C)OC1(C)C", "viability, T/C": "48.5%"}
{"Compound": "C=CCn1c(=O)c2cnc(Nc3ccc(N4CCN(C)CC4)cc3)nc2n1-c1cccc(C(C)(C)O)n1 + COC1C(OC(N)=O)C(O)C(Oc2ccc3c(O)c(NC(=O)c4ccc(O)c(CC=C(C)C)c4)c(=O)oc3c2C)OC1(C)C", "viability, T/C": "93.8%"}
{"Compound": "COc1cccc(OCCCN)c1-c1cc(Nc2cnc(C#N)cn2)n[nH]1 + Nc1ccc(C#CCN(C(=O)Cc2ncc(C(F)(F)F)cc2C(F)(F)F)c2ccc(F)cc2)nn1", "viability, T/C": "51.1%"}
{"Compound": "CC[C@@]1(O)C(=O)OCc2c1cc1n(c2=O)Cc2cc3c(CN(C)C)c(O)ccc3nc2-1 + Cc1cccc(N(C)C(=O)C2C(O)CCN2c2nc(C)cc(C(F)(F)F)c2C#N)c1", "viability, T/C": "94.2%"}
{"Compound": "CC[C@@]1(O)C(=O)OCc2c1cc1n(c2=O)Cc2cc3c(CN(C)C)c(O)ccc3nc2-1 + Nc1ccc(C#CCN(C(=O)Cc2ncc(C(F)(F)F)cc2C(F)(F)F)c2ccc(F)cc2)nn1", "viability, T/C": "85.3%"}
{"Compound": "Cn1ncnc1[C@H]1c2n[nH]c(=O)c3cc(F)cc(c23)N[C@@H]1c1ccc(F)cc1 + COC1C(OC(N)=O)C(O)C(Oc2ccc3c(O)c(NC(=O)c4ccc(O)c(CC=C(C)C)c4)c(=O)oc3c2C)OC1(C)C", "viability, T/C": "85%"}

###

# Test system: 885724-159-R-J1-PDC complex spheroid viability
# Assay: Anticancer human tumor 885724-159-R-J1-PDC cell line growth inhibition [POLQ];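 note: spheroids exposed to compounds for 7 days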
# Run conditions: second compound 3.16 µM; first compound 3.16 µM; hits give low values

{"Compound": "COc1cc2cc(C(=O)CCC(=O)O)sc2cc1OC + Nc1ccc(C#CCN(C(=O)Cc2ncc(C(F)(F)F)cc2C(F)(F)F)c2ccc(F)cc2)nn1", "viability, T/C": "104%"}
{"Compound": "CCCS(=O)(=O)Nc1ccc(F)c(C(=O)c2c[nH]c3ncc(-c4ccc(Cl)cc4)cc23)c1F + Nc1ccc(C#CCN(C(=O)Cc2ncc(C(F)(F)F)cc2C(F)(F)F)c2ccc(F)cc2)nn1", "viability, T/C": "146%"}
{"Compound": "CNCc1ccc(-c2[nH]c3cc(F)cc4c3c2CCNC4=O)cc1 + COC1C(OC(N)=O)C(O)C(Oc2ccc3c(O)c(NC(=O)c4ccc(O)c(CC=C(C)C)c4)c(=O)oc3c2C)OC1(C)C", "viability, T/C": "89%"}
{"Compound": "CC(C)n1c(=O)n(C)c2cnc3cc(F)c(-c4ccc(OCCCN5CCCCC5)nc4)cc3c21 + Nc1ccc(C#CCN(C(=O)Cc2ncc(C(F)(F)F)cc2C(F)(F)F)c2ccc(F)cc2)nn1", "viability, T/C": "90%"}
{"Compound": "O=C(c1cc(Cc2n[nH]c(=O)c3ccccc23)ccc1F)N1CCN(C(=O)C2CC2)CC1 + Cc1cccc(N(C)C(=O)C2C(O)CCN2c2nc(C)cc(C(F)(F)F)c2C#N)c1", "viability, T/C": "103%"}
{"Compound": "CCc1cc2c(N3CCc4c(cc(Cn5ccnc5)cc4-c4cn(C)nc4C(F)(F)F)C3=O)ccnc2c(OC)n1 + COC1C(OC(N)=O)C(O)C(Oc2ccc3c(O)c(NC(=O)c4ccc(O)c(CC=C(C)C)c4)c(=O)oc3c2C)OC1(C)C", "viability, T/C": "75.4%"}
{"Compound": "COc1cc2cc(C(=O)CCC(=O)O)sc2cc1OC + Cc1cccc(N(C)C(=O)C2C(O)CCN2c2nc(C)cc(C(F)(F)F)c2C#N)c1", "viability, T/C": "104%"}
{"Compound": "CC1COCCN1c1cc(-c2ccnn2C)c2ccnc(-c3ccn[nH]3)c2n1 (stereo unspecified) + Nc1ccc(C#CCN(C(=O)Cc2ncc(C(F)(F)F)cc2C(F)(F)F)c2ccc(F)cc2)nn1", "viability, T/C": "43.4%"}
{"Compound": "CCc1cc2c(N3CCc4c(cc(Cn5ccnc5)cc4-c4cn(C)nc4C(F)(F)F)C3=O)cc(C)nc2c(OC)n1 + COC1C(OC(N)=O)C(O)C(Oc2ccc3c(O)c(NC(=O)c4ccc(O)c(CC=C(C)C)c4)c(=O)oc3c2C)OC1(C)C", "viability, T/C": "80.1%"}
{"Compound": "O=c1[nH]cc(F)c(=O)[nH]1 + COC1C(OC(N)=O)C(O)C(Oc2ccc3c(O)c(NC(=O)c4ccc(O)c(CC=C(C)C)c4)c(=O)oc3c2C)OC1(C)C", "viability, T/C": "83.5%"}
{"Compound": "CCc1cc2c(N3CCc4c(cc(Cn5ccnc5)cc4-c4cn(C)nc4C(F)(F)F)C3=O)ccnc2c(OC)n1 + Nc1ccc(C#CCN(C(=O)Cc2ncc(C(F)(F)F)cc2C(F)(F)F)c2ccc(F)cc2)nn1", "viability, T/C": "79.5%"}
